target: Phospholipase A2 (Homo sapiens, UniProt P04054)
Sequence (P04054 whole entry): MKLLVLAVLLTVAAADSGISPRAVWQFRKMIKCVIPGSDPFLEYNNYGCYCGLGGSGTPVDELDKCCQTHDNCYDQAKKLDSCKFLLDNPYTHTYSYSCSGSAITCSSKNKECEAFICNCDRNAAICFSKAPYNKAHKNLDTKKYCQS
readout_label: pIC50
Please express pIC50 as -log10 of the molar concentration.

Measured pIC50 for this entry CC(C)/C=C/[C@@H](C)[C@H]1CC[C@@H]2[C@]1(C)CC[C@H]1[C@@]23O[C@@H]3[C@H](O)[C@@]2(O)C[C@@H](O)CC[C@]12C on Phospholipase A2 (Homo sapiens, UniProt P04054): 4.67

* * *

system: P388; assay: Cytotoxicity against mouse P388 cells; format: functional, cell-based
readout_label: IC50

Here are 3 molecules together with their reported answers.
Entry CC(C)/C=C/[C@@H](C)[C@H]1CC[C@@H]2[C@]1(C)CC[C@H]1[C@@]23O[C@@H]3[C@H](O)[C@@]2(O)C[C@@H](O)CC[C@]12C — recorded IC50 = 28.7 µM

Entry CC(C)CCC[C@@H](C)[C@H]1CC[C@@H]2[C@]1(C)CC[C@H]1[C@@]23O[C@@H]3[C@H](O)[C@@]2(O)C[C@@H](O)CC[C@]12C — recorded IC50 = 17.9 µM

Entry CC(=O)O[C@H]1CC[C@]2(C)[C@H]3CC[C@]4(C)[C@@H]([C@H](C)/C=C/CC(C)C)CC[C@H]4[C@]34O[C@@H]4[C@H](OC(C)=O)[C@@]2(O)C1 — recorded IC50 = 11.6 µM

Continue with the molecule presented below.
Entry CC(C)C(C)/C=C/[C@@H](C)[C@H]1CC[C@@H]2[C@]1(C)CC[C@H]1[C@@]23O[C@@H]3[C@H](O)[C@@]2(O)C[C@@H](O)CC[C@]12C (some centres undefined) — recorded IC50 = 20.2 µM
